TARGET_SYSTEM: LIMK2 (Homo sapiens (Human), UniProt P53671)
Sequence (P53671 whole entry): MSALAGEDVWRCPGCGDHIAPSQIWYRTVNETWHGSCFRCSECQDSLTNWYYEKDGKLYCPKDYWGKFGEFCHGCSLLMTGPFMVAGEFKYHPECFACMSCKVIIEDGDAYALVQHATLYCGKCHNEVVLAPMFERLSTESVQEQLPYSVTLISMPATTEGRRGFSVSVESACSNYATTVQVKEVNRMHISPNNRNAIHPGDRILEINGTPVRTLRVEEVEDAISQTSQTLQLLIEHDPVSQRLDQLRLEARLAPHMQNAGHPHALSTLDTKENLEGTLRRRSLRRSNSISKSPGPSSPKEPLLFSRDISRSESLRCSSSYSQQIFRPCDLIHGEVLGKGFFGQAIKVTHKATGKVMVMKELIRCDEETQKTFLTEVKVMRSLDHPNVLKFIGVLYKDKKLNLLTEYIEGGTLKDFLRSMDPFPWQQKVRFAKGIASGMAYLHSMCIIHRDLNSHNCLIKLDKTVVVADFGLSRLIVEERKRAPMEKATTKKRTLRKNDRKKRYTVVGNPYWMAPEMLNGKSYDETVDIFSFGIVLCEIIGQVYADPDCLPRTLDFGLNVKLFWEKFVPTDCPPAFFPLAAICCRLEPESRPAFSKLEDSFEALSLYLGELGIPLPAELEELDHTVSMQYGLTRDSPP
TEST: Lanthascreen Eu binding assay (TR-FRET), inhibition of LIMK2
EXPERIMENTAL_CONTEXT: Lanthascreen Eu binding assay
pKi: −log10 of the molar value.

| SMILES_STRUCTURE | pKi |
| --- | --- |
| COc1cccc(Oc2cccc(NC(=O)N3CC=C(c4ncnc5[nH]cc(C6CC6)c45)CC3)c2)c1 | 7.69 |
| O=C(Nc1cccc(N2CCOCC2)c1)N1CC=C(c2ncnc3[nH]c4c(c23)CCC4)CC1 | 7.06 |
| COc1cccc(NC(=O)N2CC=C(c3ncnc4[nH]c5c(c34)CCC5)CC2)c1 | 7.60 |
| O=C(Nc1cccc(Cl)c1)N1CC=C(c2ncnc3[nH]c4c(c23)CCC4)CC1 | 7.59 |
| Cc1c[nH]c2ncnc(C3=CCN(C(=O)Nc4cccc(Oc5cccnc5)c4)CC3)c12 | 8.12 |
